Collected hGLPIR cAMP EC50 ratio values appear next to each entry.
Target: human GLP-1 receptor (human, UniProt P43220 24-463)
Assay: cell-based or functional assay

>>> recorded_result("YXEGTFTSDYSIXLDKKAQXAFIEYLIEGGPSSGAPPPS (Aib2; αMeL13; K17((2-[2-(2-Amino-ethoxy)-ethoxy]-acetyl)2-(γGlu)-CO-(CH2)18-CO2H); Aib20; C-terminal NH2) [Peptide 20]")
0.577

Bench note: what hGLPIR cAMP EC50 ratio did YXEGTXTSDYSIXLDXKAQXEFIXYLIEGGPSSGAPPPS (not fully specified; Aib2; αMeF(2F)6; Aib13; Orn16; K17((2-[2-(2-Amino-ethoxy)-ethoxy]-acetyl)2-(γGlu)-CO-(CH2)16-CO2H); Aib20; D-Glu24; C-terminal NH2) [Peptide 247] show?
0.614

Bench note: what hGLPIR cAMP EC50 ratio did YXEGTXTSDHSIXLDEKAQXTFIXYLIEGGPSSGAPPPS (Aib2; αMeF(2F)6; αMeL13; K17((2-[2-(2-Amino-ethoxy)-ethoxy]-acetyl)2-(γGlu)-CO-(CH2)16-CO2H); Aib20; D-Glu24; C-terminal NH2) [Peptide 169] show?
0.0136
